Target: T1, biotinylated PD1-ECD-AviHis (human, UniProt Q15116 25-170, biotinylated, site not stated)
T1 construct: also called huPD1; hu PD1
Test: ELISA, inhibition of PD-L2 Fc binding to coated PD1-ECD-AviHis
endpoint_name: IC50 (µg/mL)
Write the value in µg/mL as a bare number.

Briefly, IC50 measured for PD1-0069 (antibody, V domains shown) VH: QVQLQQSGPELVRPGVSVKISCKGSGYTFTDYAMHWVKQSHARTLEWIGVISTYSGDTNYNQKFKDKATMTVDKSSSTAYLELARMTSEDSAIYYCARLGITTGFAYWGQGTLVTVSA VL: DIVLTQSPASLAVSLGQRATISCRASKGVSTSSYSFMHWYQQKPRQPPKLLIKYASYLESGVPARFSGSGSGTDFTLNIHPVEEEDAATYYCHHSREFPWTFGGGTKLEIK : 0.089

Briefly, IC50 measured for PD1-0103 (antibody, V domains shown, Mouse monoclonal antibody) VH: EVILVESGGGLVKPGGSLKLSCAASGFSFSSYTMSWVRQTPEKRLDWVATISGGGRDIYYPDSVKGRFTISRDNAKNTLYLEMSSLMSEDTALYYCVLLTGRVYFALDSWGQGTSVTVSS VL: KIVLTQSPASLPVSLGQRATISCRASESVDTSDNSFIHWYQQRPGQSPKLLIYRSSTLESGVPARFSGSGSRTDFTLTIDPVEADDVATYYCQQNYDVPWTFGGGTKLEIK : 0.051

Briefly, IC50 measured for PD1-0050 (antibody, V domains shown) VH: DVQLQESGPGLVKPSQSLSLTCTVTGYSITSDYAWNWIRQFPGNKLEWMGYITYTGRTSYNPSLKSRISITRDTSKNQFFLQLNSVTTEDTATYYCAREMDYYGSTLDYWGQGTTLTVSS VL: KIVLTQSPASLAVSLRQRATISCRASESVDRYGNSFIHWYQQKPGQPPKVLIYRASNLESGFPARFSGSGSRTDFTLTIDPVEADDAATYYCQQNNEDPYTFGSGTKLEIK : 0.034

Briefly, IC50 measured for PD1-0102 (antibody, V domains shown) VH: DVQLQESGPDLVKPSQSLSLTCTVTGYSITSGYSWHWIRQFPGNKLEWMGFIHSSGDTNYNPSLKSRISFTRDTSKNQFFLQLSSLTDEDTATYYCATYRNWYFDVWGAGTTVTVSS VL: DIVMTQSPSSLTVTAGEKVTMRCKSSQSLLNSGTQKNYLTWYQQKPGQPPKLLIYWASTRESGVPNRFTGSGSGTDFTLTISSVQAEDLSVYYCQSDYTFPLTFGGGTKLELK : 0.14
